Tested on: HCT-8
Test: Antiproliferative activity against human HCT8 cells after 3 days by sulforhodamine B assay
Format: functional
Conditions: HCT-8, 72 h
# thresholds on GI50 define classes: group A (below 3 µM), group B (3 µM to below 20 µM), group C (20 µM or more)

[[record]]
compound = "CCC1=C(OC)C(CC)(CC)c2oc(-c3cccc4ccccc34)c(Br)c(=O)c2C1=O"
group = "group B"

[[record]]
compound = "CCC1=C(O)c2c(oc(-c3cn(C)c4ccccc34)cc2=O)C(CC)(CC)C1=O"
group = "group B"

[[record]]
compound = "CCC1=C(O)c2c(oc(-c3cccc4ccccc34)cc2=O)C(CC)(CC)C1=O"
group = "group A"

[[record]]
compound = "CCC1=C(O)c2c(oc(-c3csc4ccc(C)cc34)cc2=O)C(CC)(CC)C1=O"
group = "group C"

[[record]]
compound = "CCC1=C(O)c2c(oc(-c3csc4ccc(Br)cc34)cc2=O)C(CC)(CC)C1=O"
group = "group C"


Please indicate the class for CCC1=C(O)c2c(oc(-c3coc4ccccc34)cc2=O)C(CC)(CC)C1=O based on its GI50.
group B

* * *

Each record here notes measured GI50.
Tested on: HCT-8
Test: Antiproliferative activity against human HCT8 cells after 3 days by sulforhodamine B assay
Format: functional
Conditions: HCT-8, 72 h
Report the figure in µM without appending any unit label.

May I ask what GI50 has been recorded for CCC1=C(O)c2c(oc(-c3c(C)ccc4ccccc34)cc2=O)C(CC)(CC)C1=O ?
17.4

Value lookup for GI50; key = CCC1=C(O)c2c(oc(-c3ccc4cc(OC)ccc4c3)cc2=O)C(CC)(CC)C1=O
12

Quick one: GI50 of CC1=C(O)c2c(oc(-c3csc4ccccc34)cc2=O)C(C)(C)C1=O ?
1.08

For the molecule shown here, CCC1=C(O)c2c(oc(-c3ccc4c(c3)OCCO4)cc2=O)C(CC)(CC)C1=O , give the reported GI50.
2.27

Name the reported GI50 value associated with the molecule CCC1=C(O)c2c(oc(-c3cccc4ccccc34)cc2=O)C(CC)(CC)C1=S
8.17

What GI50 value was documented for this molecule, CCC1=C(O)C2=C(OC(c3cccc4ccccc34)CC2=O)C(CC)(CC)C1=O (stereo unspecified) ?
9.28

Entry CCC1=C(O)c2c(oc(-c3ccc4c(c3)OCO4)cc2=O)C(CC)(CC)C1=O : reported GI50 = ?
13.1

What value of GI50 has been recorded for this entry: CCC1=C(O)c2c(oc(-c3cccc4ccccc34)c(Br)c2=O)C(CC)(CC)C1=O
13.9

I am curious: what GI50 value has been reported for CCC1=C(O)c2c(oc(-c3cc4ccccc4s3)cc2=O)C(CC)(CC)C1=O ?
19

Item under review: CCC1=C(O)c2c(oc(-c3cccc4ccsc34)cc2=O)C(CC)(CC)C1=O . Reported GI50?
11.2

Return reported GI50; argument: CCC1=C(O)c2c(oc(-c3cc4ccccc4o3)cc2=O)C(CC)(CC)C1=O
5.82

Looking for the measured GI50 of CCC1=C(O)c2c(oc(-c3cnc4ccccc4c3)cc2=O)C(CC)(CC)C1=O , can you help?
12.8

// lookup GI50 for CCC1=C(O)c2c(oc(-c3ccc(C)c4ccccc34)cc2=O)C(CC)(CC)C1=O
0.62

State the recorded GI50 for this entry: CCC1=C(O)c2c(oc(-c3c(C)sc4ccccc34)cc2=O)C(CC)(CC)C1=O
2.7

Please look up its GI50: CCC1=C(O)c2c(oc(-c3c(OC)ccc4sccc34)cc2=O)C(CC)(CC)C1=O
19.6

Requested read-out: GI50. Entry: CCC1=C(O)c2c(oc(-c3csc4ccccc34)cc2=O)C(CC)(CC)C1=O
0.13

Look up GI50: CC1=C(O)c2c(oc(-c3cccc4ccccc34)cc2=O)C(C)(C)C1=O [2-(NAPHTHALEN-1-YL)DESMOSDUMOTIN B]
1.16
